# protocol_description: in vitro
# study_conditions: human, Viable Cells (%)
property: viability
Output should be the measured figure followed by the unit it is expressed in.

Value of viability reported for the compound Cc1ccc(S(=O)(=O)Nc2ccc(NC(=O)c3ccco3)cc2NS(=O)(=O)c2ccc(C)cc2)cc1 [Compound (33f)] is 37%

====

Catalogue of compounds with associated IC50
# experimental_system: Trx system (thioredoxin/thioredoxin reductase) (Homo sapiens, UniProt Q16881)
# Sequence (Q16881 151-649 limits assumed): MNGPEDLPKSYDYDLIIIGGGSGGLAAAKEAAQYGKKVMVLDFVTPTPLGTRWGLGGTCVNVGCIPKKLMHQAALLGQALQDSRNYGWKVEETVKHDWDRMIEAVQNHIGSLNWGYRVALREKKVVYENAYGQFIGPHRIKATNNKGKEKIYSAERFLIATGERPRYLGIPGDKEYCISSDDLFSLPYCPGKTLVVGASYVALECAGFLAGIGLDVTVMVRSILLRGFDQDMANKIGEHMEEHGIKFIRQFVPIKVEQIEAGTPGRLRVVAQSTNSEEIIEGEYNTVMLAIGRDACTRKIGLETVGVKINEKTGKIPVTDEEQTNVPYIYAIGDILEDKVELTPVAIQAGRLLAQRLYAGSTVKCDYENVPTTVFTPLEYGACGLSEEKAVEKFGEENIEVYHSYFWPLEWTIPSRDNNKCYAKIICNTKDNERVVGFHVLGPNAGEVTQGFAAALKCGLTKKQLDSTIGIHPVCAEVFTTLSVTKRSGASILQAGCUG
# protocol_description: Thioredoxin/thioredoxin reductase insulin reduction assay
# Type: biochemical
# study_conditions: insulin reduction assay; read-out: Trx System IC50
Write the number in µM without appending the unit.

Reference set, count: 7
GET /value?item= Cc1ccc(S(=O)(=O)Nc2ccc(NC(=O)Cn3ccc(=O)[nH]c3=O)cc2NS(=O)(=O)c2ccc(C)cc2)cc1 [(42)] &field=IC50 returns 339

For COC(=O)c1ccc(NS(=O)(=O)c2ccc(OC(F)(F)F)cc2)c(NS(=O)(=O)c2ccc(OC(F)(F)F)cc2)c1 [(19c)] the compound record lists IC50 as 546

Quick note, IC50 for COC(=O)c1ccc(NS(=O)(=O)c2ccc(C)cc2)c(NS(=O)(=O)c2ccc(C)cc2)c1 [(12)] landed at 1360

Given item Cc1ccc(S(=O)(=O)Nc2ccc(-c3ccc(F)c(C#N)c3)cc2NS(=O)(=O)c2ccc(C)cc2)cc1 [(53)] , the value recorded as its IC50 is 106

Form: compound = COC(=O)c1ccc(NS(=O)(=O)c2ccc(N)cc2)c(NS(=O)(=O)c2ccc(N)cc2)c1 [(19e)] ; IC50 = 386

Reported IC50 ( C=CC(=O)Nc1ccc(NS(=O)(=O)c2ccc(C)cc2)c(NS(=O)(=O)c2ccc(C)cc2)c1 [(39)] ) = 156

Noted for Cc1ccc(S(=O)(=O)Nc2ccc(NC(=O)c3cccs3)cc2NS(=O)(=O)c2ccc(C)cc2)cc1 [(55)] : its IC50 reads 494

In the following, a different compound is considered.
Memo: Cc1ccc(S(=O)(=O)Nc2ccc(NC(=O)c3ccco3)cc2NS(=O)(=O)c2ccc(C)cc2)cc1 [Compound (33f)] , reported IC50: 37

====

# experimental_system: Trx system (thioredoxin/thioredoxin reductase) (Homo sapiens)
# protocol_description: Thioredoxin/thioredoxin reductase insulin reduction assay
# Type: biochemical
# study_conditions: compound at 500 μM; read-out: Inhib. (%) Trx Syst. at 500 μM
Lab note: compare inhibition at 500 µM against 80%. Equal or greater, write Satisfied. Smaller, write Not satisfied.

As a guide, the following entries are already answered.
Incoming: Determine whether this molecule has inhibition at 500 µM no lower than 80%: Cc1ccc(S(=O)(=O)Nc2ccc(C(=N)NO)cc2NS(=O)(=O)c2ccc(C)cc2)cc1 [(21c)]
Outgoing: Not satisfied

Incoming: Decide: is the reported value of inhibition at 500 µM for COC(=O)c1ccc(NS(=O)(=O)c2ccc(C)cc2)c(NS(=O)(=O)c2ccc(C)cc2)c1 equal to or greater than 80%?
Outgoing: Not satisfied

Incoming: Can CC(C)=CCN(CC=C(C)C)Cc1ccc(NS(=O)(=O)c2ccc(C)cc2)c(NS(=O)(=O)c2ccc(C)cc2)c1 be said to have inhibition at 500 µM at or above 80%?
Outgoing: Not satisfied

Incoming: Is inhibition at 500 µM at least 80%? Consider Cc1ccc(S(=O)(=O)Nc2ccc(CN)cc2NS(=O)(=O)c2ccc(C)cc2)cc1
Outgoing: Satisfied

Others:
Incoming: Determine whether measured inhibition at 500 µM meets or exceeds 80% for Cc1ccc(S(=O)(=O)Nc2ccc(NC(=O)c3ccco3)cc2NS(=O)(=O)c2ccc(C)cc2)cc1 [Compound (33f)]
Outgoing: Satisfied

Incoming: Does inhibition at 500 µM meet or surpass 80% for CCNC(=O)Nc1ccc(NS(=O)(=O)c2ccc(C)cc2)c(NS(=O)(=O)c2ccc(C)cc2)c1 [(33d)] ?
Outgoing: Satisfied

Incoming: Confirm if inhibition at 500 µM reported for the molecule COC(=O)c1ccc(NS(=O)(=O)c2ccc(Cl)s2)c(NS(=O)(=O)c2ccc(Cl)s2)c1 is 80% or above.
Outgoing: Not satisfied

Each recorded value in this set is attributed to patent US9856230B2.
